Test system: SF-295 CNS
Assay: NCI-60 one-dose screen, 48 h
Details: 10 µM unless noted
Compounds without any hit were thinned out: in the full panel of roughly 83,000, 20% have a hit. Activity calls are given as the source filed them. Rule for the calls: active = growth percent below 10; inactive = the rest.
Outcome (select one): TRUE (active), FALSE (inactive)

Example cases with answers are listed next.
>  <compound>
CC1(C)C2CC1C1(/C=N/NC(N)=S)C(C2)C(C#N)(C#N)C1(C#N)C#N (stereo not given)

>  <tested.system>
SF-295 CNS

>  <answer.label>
FALSE

$$$$
>  <compound>
CCCCN(C)N=Nc1ccc(C(N)=O)cc1

>  <tested.system>
SF-295 CNS

>  <answer.label>
FALSE

$$$$
>  <compound>
COc1nc2ccc(C)cc2cc1-c1nc2c(cnn2-c2ccc(Br)cc2)c(=O)[nH]1

>  <tested.system>
SF-295 CNS

>  <answer.label>
FALSE

$$$$
>  <compound>
CCOc1ccc2nc(SCc3nc4n(n3)S(=O)(=O)c3ccccc3N4C)sc2c1

>  <tested.system>
SF-295 CNS

>  <answer.label>
TRUE

$$$$
>  <compound>
CSc1ncccc1C(=O)OCC(=O)Nc1oc(C)c2c(C)n[nH]c(=O)c12

>  <tested.system>
SF-295 CNS

>  <answer.label>
FALSE

$$$$

IN: How did this test come out for COc1cc(/C=C/c2c(C(C)=O)c(C)nc3ccccc23)cc(OC)c1OC ?
OUT: FALSE

IN: Repeat with O=C(/C=C/c1sc(Cl)nc1Cl)c1ccc(Br)cc1
OUT: FALSE

IN: What about CC1Cc2ccccc2N1NC(=O)c1ccc(Cl)c(S(N)(=O)=O)c1 (stereo not given) ?
OUT: FALSE

IN: Now consider O=C(CSc1nccc(Nc2ccc(S(=O)(=O)Nc3nccs3)cc2)n1)c1ccc(C(F)(F)F)cc1 .
OUT: FALSE

IN: And the next one, COc1ccc(C(=O)n2nc(-c3ccccc3)nc2N)cc1OC ?
OUT: FALSE
